tested on: Staphylococcus aureus; assay: Inhibition of Staphylococcus aureus MenA using [3H]farnesyl and DHNA as substrate at 100 uM after 2 hrs
Activity calls are given as the source filed them. The calls are words filed in the database; no cut-off is given here.
assayMetric: inhibition

[[record]]
molecule = "COc1ccc(CCN[C@@H](CO)c2cccc(COc3cccc(C(=O)c4ccc(Cl)cc4)c3)c2)cc1"
valuemeasured = "inactive"

[[record]]
molecule = "CCCCCC[C@@H](O)CN1CCC(COc2ccc(C(=O)c3ccc(Cl)cc3)c(Cl)c2)CC1"
valuemeasured = "inactive"

[[record]]
molecule = "CCCC[C@H](O)CN1CCC(COc2ccc(C(=O)c3ccc(Cl)cc3)c(Cl)c2)CC1"
valuemeasured = "inactive"

[[record]]
molecule = "CCCCCCC[C@@H](O)c1cccc(CN2CCC(COc3cccc(/C(=N\\OC)c4ccc(Cl)cc4)c3)CC2)c1"
valuemeasured = "inactive"

[[record]]
molecule = "CCCCCCC[C@@H](OC(N)=O)c1cccc(CN2CCC(COc3ccc(C(=O)c4ccc(Cl)cc4)c(Cl)c3)CC2)c1"
valuemeasured = "inactive"

[[record]]
molecule = "CCCCCCCC(O)c1cccc(CN2CCC(COc3ccc(C(=O)c4ccc(Cl)cc4)c(Cl)c3)CC2)c1 (racemic)"
valuemeasured = "inactive"

[[record]]
molecule = "CCCC[C@@H](O)CN1CCC(COc2cccc(C(=O)c3ccc(Cl)cc3)c2)CC1"
valuemeasured = "inactive"

[[record]]
molecule = "CCCCCC[C@@H](CN1CCC(COc2ccc(C(=O)c3ccc(Cl)cc3)c(Cl)c2)CC1)OC(N)=O"
valuemeasured = "inactive"

[[record]]
molecule = "CCCCCC[C@H](CN1CCC(COc2cccc(/C(=N\\OC)c3ccc(Cl)cc3)c2)CC1)OC(N)=O"
valuemeasured = "inactive"

[[record]]
molecule = "CCCCCC[C@@H](CN1CCC(COc2ccc(/C(=N\\OC)c3ccc(Cl)cc3)c(Cl)c2)CC1)OC(N)=O"
valuemeasured = "inactive"

[[record]]
molecule = "CCCCCC[C@@H](CN1CCC(COc2cccc(C(=O)c3ccc(Cl)cc3)c2)CC1)OC(N)=O"
valuemeasured = "inactive"

[[record]]
molecule = "CCCCCCC[C@@H](OC(N)=O)c1cccc(CN2CCC(COc3cccc(C(=O)c4ccc(Cl)cc4)c3)CC2)c1"
valuemeasured = "inactive"

[[record]]
molecule = "CCCCCCC[C@H](O)c1cccc(CN2CCC(COc3ccc(C(=O)c4ccc(Cl)cc4)c(Cl)c3)CC2)c1"
valuemeasured = "inactive"

[[record]]
molecule = "CCCCC(O)CN1CCC(COc2cccc(C(=O)c3ccc(Cl)cc3)c2)CC1 (racemic)"
valuemeasured = "inactive"

[[record]]
molecule = "CCCCCCCC(O)c1cccc(CN2CCC(COc3cccc(C(=O)c4ccc(Cl)cc4)c3)CC2)c1 (racemic)"
valuemeasured = "inactive"

